Biological target: Solute carrier family 2, facilitated glucose transporter member 1 (Homo sapiens)
Assay: ST_JUDE_LEISH: Cytotoxicity at 2uM final concentration against transgenic Leishmania Mexicana promastigotes LmGLUT1 that are glucose transport deficient and complemented with the human glucose transporter GLUT1. Activity is measured by DNA content using SYBR green in vitro
Format: functional
Field: inhibition. Provide a value for each of the compounds that follow.
Express your answer in %, writing the number without its unit.

Lookup result for `N#Cc1ccc(-c2ccc(C(=O)NCCCCN3CCC(n4cnc5ccccc54)CC3)cc2)cc1` ; measured inhibition: 3.46

Lookup result for `c1ccc2[nH]c(-c3ccc(-c4ccc(CN5CCN(c6ccncc6)CC5)cc4)cc3)nc2c1` ; measured inhibition: 21.3

Lookup result for `CN(C)c1ccc(-c2ccc(C(=O)NC3CCN(Cc4ccccc4F)CC3)s2)cc1` ; measured inhibition: 6.98

Lookup result for `CCN(CC)CCN(Cc1ccc(-c2ccc(Cl)cc2)cc1)C(=O)Cn1cc(CN(C)C)c(=O)nc1SCc1ccc(F)cc1` ; measured inhibition: 0.45

Lookup result for `N=C1N=C(N)NC2(CCCCC2)N1OCC1CCCCC1` ; measured inhibition: -0.96

Lookup result for `CN1CCN(CCNc2c3ccccc3nc3ccc4ccccc4c23)CC1` ; measured inhibition: 18.8

Lookup result for `CNCCNCc1ccc(-c2ccc(-c3nc4cc(F)ccc4[nH]3)s2)cc1` ; measured inhibition: 9.52

Lookup result for `CN(C)CCN(C)Cc1ccc(-c2ccc3c(Nc4ccc(Oc5ccccc5)cc4)ccnc3c2)o1` ; measured inhibition: 0.78

Lookup result for `CCCNC(=O)c1cncc(-c2cccc(CNC3Cc4ccccc4C3)c2)c1` ; measured inhibition: -1.27

Lookup result for `CC1(C)NC(N)=NC(=N)N1OCCCOc1ccc([N+](=O)[O-])cc1` ; measured inhibition: 0.81

Lookup result for `O=C(CN1CCN(S(=O)(=O)C=Cc2ccccc2)CC1)Nc1cc(C(F)(F)F)ccc1Cl` ; measured inhibition: 9.54

Lookup result for `N#Cc1nc2ccc(OCCN(Cc3ccccc3C(F)(F)F)c3ccc(C#N)c(C(F)(F)F)c3)cc2s1` ; measured inhibition: 9.32

Lookup result for `CCCc1cn2c3c(cc(C(=O)N[C@@H](Cc4ccccc4)[C@H](O)CNC4CCCCC4)cc13)N(C)S(=O)(=O)CC2` ; measured inhibition: 1.94

Lookup result for `O=C(C=Cc1ccc(Br)cc1)N1CCC(CCN2CCC(c3c[nH]c4ccccc34)CC2)CC1` ; measured inhibition: 4.46

Lookup result for `COc1ccc(CN2CCN(C(=O)c3cccs3)CC2)c(O)c1` ; measured inhibition: 10.5

Lookup result for `CS(=O)(=O)c1ccc(CNCc2ccc(-c3cccc(-c4nc5cc(C(F)(F)F)ccc5[nH]4)c3)cc2)cc1` ; measured inhibition: 3.2

Lookup result for `Cc1cccc2nc(-c3cccc(-c4cccc(NC(=O)NCc5ccccc5)c4)c3)[nH]c12` ; measured inhibition: 3.73

Lookup result for Cc1cccc2nc(-c3cccc(-c4ccc(NC(=O)C5CCCO5)cc4)c3)[nH]c12 (centres undefined) ; measured inhibition: 6.93

Lookup result for `CC(C)Nc1nc(NC2CCCCC2)nc(N2CCCCCCC2)n1` ; measured inhibition: 19.3

###

Target: Solute carrier family 2, facilitated glucose transporter member 1 (Homo sapiens)
Assay: ST_JUDE_LEISH: Cytotoxicity at 2uM final concentration against transgenic Leishmania Mexicana promastigotes LmGLUT1 that are glucose transport deficient and complemented with the human glucose transporter GLUT1. Activity is measured by DNA content using SYBR green in vitro
Format: functional
Readout label: inhibition
Give the figure together with its unit, number first.

Lookup result for OC1CCCN(Cc2ccc(-c3ccc(-c4nc5cc(F)ccc5[nH]4)s3)cc2)C1 (stereo not given) ; measured inhibition: 3.05%

Lookup result for `Cc1ccc(CN2CCCN(Cc3cccc(NC(=O)c4cc5ccccc5s4)c3)CC2)cc1C` ; measured inhibition: 0.56%

Lookup result for `CN(C)CCOc1cc(NC(=O)Nc2ccc(-c3ccncc3)c(Cl)c2)ccc1I` ; measured inhibition: 2.24%

Lookup result for CCC(CN1C(=N)NC(c2ccccc2)(c2ccccc2)C1=O)c1ccccc1 (stereo not given) ; measured inhibition: -0.75%

Lookup result for `COc1ccc(CCNCCCCCCNCCc2ccc(Cl)c3ccccc23)cc1OC` ; measured inhibition: 0.11%

Lookup result for `COc1ccc2nccc([C@@H](O)CN3CCC(NCc4ccc5c(c4)OCCO5)CC3)c2c1` ; measured inhibition: 6.76%

Lookup result for `CCCCCN1C(=O)C(c2ccccc2)(c2ccccc2)N=C1N` ; measured inhibition: 4.32%

Lookup result for `O=C(Nc1ccc(Cl)cc1)c1cccc2nc(C(F)(F)F)[nH]c12` ; measured inhibition: 9.28%

Lookup result for `Cc1cccc(OCC(=O)Nc2cccc(NC(=O)COc3cccc(C)c3)n2)c1` ; measured inhibition: 0.99%

Lookup result for `O=C(Nc1ccc(Cn2ncc(N3CCCNCC3)c(Cl)c2=O)cc1)Nc1ccc(C(F)(F)F)cc1` ; measured inhibition: 3.47%

###

Target: Glucose transporter (Leishmania mexicana) (UniProt O61059)
Test: ST_JUDE_LEISH: Cytotoxicity at 2uM final concentration against transgenic Leishmania Mexicana promastigotes LmGT2 that are glucose transport deficient and complemented with the L. Mexicana glucose transporter 2. Activity is measured by DNA content using SYBR green in vitro
Type: functional
Readout label: inhibition (%)
Express your answer in %, writing the number without its unit.

Observed inhibition, Glucose transporter (Leishmania mexicana) (UniProt O61059), `O=C(Cc1cccc(OCCCN(Cc2cccc(C(F)(F)F)c2Cl)CC(c2ccccc2)c2ccccc2)c1)NCc1ccco1` : -2.47

Observed inhibition, Glucose transporter (Leishmania mexicana) (UniProt O61059), `CCc1nc2c(N)nc(N)nc2nc1-c1ccc(OC)cc1` : 1.23

Observed inhibition, Glucose transporter (Leishmania mexicana) (UniProt O61059), `O=C(Nc1cccc(-c2cccc(-c3nc4cc(C(F)(F)F)ccc4[nH]3)c2)c1)Nc1ccc(F)c(F)c1F` : 0.55

Observed inhibition, Glucose transporter (Leishmania mexicana) (UniProt O61059), `CC(C)N1CCC(NC(=O)N2CCCN(c3ncnc4cc(-c5ccc(Cl)cc5)sc34)CC2)CC1` : -3.09

Observed inhibition, Glucose transporter (Leishmania mexicana) (UniProt O61059), `CC(C)CNCc1ccc(-c2ccc(CN(CCCN3CCN(C)CC3)C(=O)CCC3CCCC3)cc2)cc1` : 3.97

Observed inhibition, Glucose transporter (Leishmania mexicana) (UniProt O61059), `C=CCOc1ccc(-c2c(C)[nH]c(C)c(Br)c2=O)cc1` : -0.17

Observed inhibition, Glucose transporter (Leishmania mexicana) (UniProt O61059), C[C@H](Cc1ccc(C[C@@H](C)NCC(O)c2cc(Cl)c(N)c(Cl)c2)cc1)NCC(O)c1cc(Cl)c(N)c(Cl)c1 (stereo partly drawn) : 1.14

Observed inhibition, Glucose transporter (Leishmania mexicana) (UniProt O61059), `CS(=O)(=O)c1ccccc1CNC(=O)c1cccc(-c2ccc(-c3nc4cc(C(F)(F)F)ccc4[nH]3)cc2)c1` : 0.15

Observed inhibition, Glucose transporter (Leishmania mexicana) (UniProt O61059), `COc1cc2c(cc1S(=O)(=O)c1ccc(NC(=O)c3ccc4ccccc4c3)cc1)CCN(C)CC2` : -0.44

Observed inhibition, Glucose transporter (Leishmania mexicana) (UniProt O61059), `COc1cc(Cc2cnc(NCCN3CCNCC3)nc2N)ccc1OCc1ccc(C(F)(F)F)cc1` : 6.93

Observed inhibition, Glucose transporter (Leishmania mexicana) (UniProt O61059), `COc1ccc2cc(C(=O)Nc3ccc4c(c3)CCN(C3CCC3)CC4)ccc2c1` : 3.8

Observed inhibition, Glucose transporter (Leishmania mexicana) (UniProt O61059), `O=C(Nc1ccc(Cl)c(Cl)c1)Nc1ccc2nccc(N3CCN(Cc4ccccc4)CC3)c2c1` : 3.64

Observed inhibition, Glucose transporter (Leishmania mexicana) (UniProt O61059), `CCCCN(CCCC)CCCN(CCCN(CCCC)CCCC)c1cc(C)nc(Nc2ccc3cc(Br)ccc3c2)n1` : 6.68

Observed inhibition, Glucose transporter (Leishmania mexicana) (UniProt O61059), `CC(=O)Nc1ccc(CN2CCc3ccc(NS(=O)(=O)c4ccc(-c5cccc(C(F)(F)F)c5)cc4)cc3CC2)s1` : 3.46

Observed inhibition, Glucose transporter (Leishmania mexicana) (UniProt O61059), `O=C(Nc1cccc(C(F)(F)F)c1)c1cc([N+](=O)[O-])cc2cn[nH]c12` : 1.24

Observed inhibition, Glucose transporter (Leishmania mexicana) (UniProt O61059), `COc1ccc(Cc2nc3c(n2C(C)=O)SC(c2ccc(Cl)c(Cl)c2)=NN3C(C)=O)cc1` : 5.39

Observed inhibition, Glucose transporter (Leishmania mexicana) (UniProt O61059), `CN1CCC(N2CCN(Cc3cccc(-c4ccc(-c5nc6cc(F)ccc6[nH]5)cc4)c3)CC2)CC1` : 2.66

Observed inhibition, Glucose transporter (Leishmania mexicana) (UniProt O61059), `NC(=O)c1ccc(NCC(=O)Nc2cccc(-c3cccc(-c4nc5cc(F)ccc5[nH]4)c3)c2)cc1` : -1.25

Sourced from ChEMBL document CHEMBL3433997
